Settings: in n-butanol, 313.15 K
Endpoint label: solubility (mole fraction)
Give bare numbers.

Given `Nc1cnc(Br)cn1` , state its recorded solubility (mole fraction).
0.0118

====

Conditions: in isopropanol, 278.15 K
Endpoint label: solubility (mole fraction)
One number for each entry.

Given `Nc1cnc(Br)cn1` , state its recorded solubility (mole fraction).
0.00282

====

Conditions: in DMF, 323.15 K
Endpoint label: solubility (mole fraction)
Numbers only.

Given `Nc1cnc(Br)cn1` , state its recorded solubility (mole fraction).
0.0227

====

Conditions: in n-propanol, 303.15 K
Endpoint label: solubility (mole fraction)

Given `Nc1cnc(Br)cn1` , state its recorded solubility (mole fraction).
0.00625
